Target: T1, Bzz1-1, P38822
T1 sequence (P38822 478-572, looked up): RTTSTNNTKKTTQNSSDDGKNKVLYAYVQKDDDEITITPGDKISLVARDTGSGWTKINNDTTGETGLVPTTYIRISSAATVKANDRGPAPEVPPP
Assay: SPOT array
Conditions: median of control spots 4446
Property: SPOT intensity

Some entries whose results are on file:
So what does the record say about SPOT intensity for TPTSGPPLLPPRNTM ?
0

So what does the record say about SPOT intensity for FPPKRKPLLRPQRSD ?
0

So what does the record say about SPOT intensity for QGYPRQPQRPQRYHP ?
0

So what does the record say about SPOT intensity for RPPRPPPKPLHLRTE ?
30

So what does the record say about SPOT intensity for TPRLSLPRLPNKHHW ?
0

I. NMLSRPRLAKLPSIR
II. KDKSRPPRPPPKPLH
III. EAEEAAPQLPSRSSA
IV. GQYRRTIVIPRRFFT
Rank by SPOT intensity (largest to smallest). # respond with the labels, arranged in the requested order
II, IV, III, I

I. RFKRHRLEFPFNESE
II. VATSTSPKLPPRGKQ
Kindly compare I with II and tell me which has the lower SPOT intensity figure. The response must carry the label of the picked entry.
I
(I: 0, II: 2)
